targetEntity: T1, HLA-A2 / homologous peptide IL20RB complex on T2 cells (human)
T1 construct: whole, on cells; also called T2 cells supplemented with homologous peptide IL20RB
runDescription: flow cytometry on peptide-pulsed T2 cells, scFv 100 nM;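 also: scFv binding read as gMFI and normalized to the level of HLA/peptide complex displayed on T2 cells, with homologous 9-mer peptides used to probe specificity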
assayMetric: standardized gMFI
Form: value (number only, do not type unit).

I'd like to know its standardized gMFI. The binder in question is NYA-1163 (scFv) scFv: GEVQLVESGGGVVQPGRSLTPSCSASGFSIRSYDIHWVRLAPGKGLEWVATISYDGSQKYFADSVKGRFTIFRDESENMVYLQMSGLRVEDTAVYHCARGSSGHYEAFDIWGQGTMVTVSSGGGGSGGGGSGGGGSQSVLTQPPSVSAAPGQKVTISCSGSSSNIGNNYVSWYQQLPGTAPKLLIYDNNKRPSGIPDRFSGSKSGTSATLGITGLQTGDEADYYCGTWDSSLSAPWVFGGGTKVTVLGAAAGAGGDYKDDDDKGAAAHHHHHH
0.41
